Test: Time course of conversion to indirubin in FaSSGF at 37° C.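 Note: compound incubated in fasted state simulated gastric fluid, species in samples quantified by UPLC-MS with UV (210–400 nm) and ELS detection.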
Assay type: physicochemical
Conditions: FaSSGF (Example 4; table title prints FaSSIF) 37° C., 1 h
QUANTITY_KIND: indirubin methylene alcohol (%)
Answers are plain numbers, in %.

Query :: Field request: indirubin methylene alcohol | item: O=C1/C(=C2/C(=O)N(CN3CCCCC3)c3ccccc32)Nc2ccccc21 [drawing 269]
Result :: 0

Query :: Field request: indirubin methylene alcohol | item: CN1CCN(CN2C(=O)/C(=C3\Nc4ccccc4C3=O)c3ccccc32)CC1 [drawing 273]
Result :: 0

Query :: Field request: indirubin methylene alcohol | item: O=C1/C(=C2/C(=O)N(CN3CCC3)c3ccccc32)Nc2ccccc21 [drawing 275]
Result :: 2

More entries:
Query :: Field request: indirubin methylene alcohol | item: CC(=O)N1CCN(CN2C(=O)/C(=C3\Nc4ccccc4C3=O)c3ccccc32)CC1 [drawing 281]
Result :: 4

====

What Fraction (percent) of starting material (SM) was measured for each of the following?
Test: Stability of indirubin prodrugs in simulated fluids (FaSSIF, FaSSGF), 24 h at 37° C., UPLC-MS
Type: physicochemical
Conditions: FaSSIF 37° C. 24 h
Give bare numbers, in %.

Answered examples (6):
Query :: Field request: Fraction (percent) of starting material (SM) | item: `COCN1C(=O)/C(=C2\Nc3ccccc3C2=O)c2ccccc21`
Result :: 91

Query :: Field request: Fraction (percent) of starting material (SM) | item: `Cl.NCCNC(=O)N1C(=O)/C(=C2\Nc3ccccc3C2=O)c2ccccc21`
Result :: 100

Query :: Field request: Fraction (percent) of starting material (SM) | item: `O=C1/C(=C2/C(=O)N(CSc3ccccc3)c3ccccc32)Nc2ccccc21`
Result :: 100

Query :: Field request: Fraction (percent) of starting material (SM) | item: O=C1/C(=C2/C(=O)N(CO)c3ccccc32)Nc2ccccc21 [drawing 219]
Result :: 0

Query :: Field request: Fraction (percent) of starting material (SM) | item: `O=C1/C(=C2/C(=O)N(C(=O)N3CCOCC3)c3ccccc32)Nc2ccccc21`
Result :: 100

Query :: Field request: Fraction (percent) of starting material (SM) | item: `O=C1/C(=C2/C(=O)N(COc3ccccc3)c3ccccc32)Nc2ccccc21`
Result :: 100

# return Fraction (percent) of starting material (SM) for each item in the list
1. CCCCCCCCCCC(=O)N1C(=O)/C(=C2\Nc3ccccc3C2=O)c2ccccc21
2. O=C1/C(=C2/C(=O)N(CS(=O)(=O)c3ccccc3)c3ccccc32)Nc2ccccc21
3. CS(=O)(=O)NCCNC(=O)N1C(=O)/C(=C2\Nc3ccccc3C2=O)c2ccccc21

Result ::
1: 100; 2: 100; 3: 100

Query :: Field request: Fraction (percent) of starting material (SM) | item: `O=C(O)CCC(=O)OCN1C(=O)/C(=C2\Nc3ccccc3C2=O)c2ccccc21`
Result :: 100

====

Test: Stability of indirubin prodrugs in simulated fluids (FaSSIF, FaSSGF), 24 h at 37° C., UPLC-MS
Type: physicochemical
Details: FaSSGF 37° C. 24 h
Procedure: 10.41 g fasted state simulated intestinal fluid (FaSSIF) buffer concentrate was dissolved in 240.3 g deionized water and 560 mg FaSSIF powder added. The mixture was stirred until complete dissolution observed. The test compound (approx. 1-3 mg) was placed in 5.00 mL of FaSSIF solution. Samples of the solution with the test compound were taken after 24 hours in at 37° C. (oven-controlled temperature). […]
What Fraction (percent) of starting material (SM) was measured for each of the following?
Numbers only, in %.

Query :: Field request: Fraction (percent) of starting material (SM) | item: `CS(=O)(=O)NCCNC(=O)N1C(=O)/C(=C2\Nc3ccccc3C2=O)c2ccccc21`
Result :: 100

Query :: Field request: Fraction (percent) of starting material (SM) | item: CCN(CC)CN1C(=O)/C(=C2\Nc3ccccc3C2=O)c2ccccc21 [drawing 221]
Result :: 0

Query :: Field request: Fraction (percent) of starting material (SM) | item: `CN(C)CCCCNC(=O)N1C(=O)/C(=C2\Nc3ccccc3C2=O)c2ccccc21`
Result :: 100

Query :: Field request: Fraction (percent) of starting material (SM) | item: `O=C1/C(=C2/C(=O)N(COc3ccccc3)c3ccccc32)Nc2ccccc21`
Result :: 100

Query :: Field request: Fraction (percent) of starting material (SM) | item: `CCOC(=O)CCC(=O)N1C(=O)/C(=C2\Nc3ccccc3C2=O)c2ccccc21`
Result :: 100

# return Fraction (percent) of starting material (SM) for each item in the list
1. O=C1/C(=C2/C(=O)N(C(=O)N3CCOCC3)c3ccccc32)Nc2ccccc21
2. O=C1/C(=C2/C(=O)N(C(=O)CCCN3CCOCC3)c3ccccc32)Nc2ccccc21
3. O=C(O)CCC(=O)OCN1C(=O)/C(=C2\Nc3ccccc3C2=O)c2ccccc21

Result ::
100
100
100

# return Fraction (percent) of starting material (SM) for each item in the list
1. CN(C)CCCNC(=O)N1C(=O)/C(=C2\Nc3ccccc3C2=O)c2ccccc21
2. O=C1/C(=C2/C(=O)N(C(=O)NC3CCOCC3)c3ccccc32)Nc2ccccc21 [drawing 236]
3. O=C1/C(=C2/C(=O)N(CO)c3ccccc32)Nc2ccccc21 [drawing 219]
4. CC(=O)OCN1C(=O)/C(=C2\Nc3ccccc3C2=O)c2ccccc21

Result ::
100
68
87
94
